targetOrTestSystem: Vasopressin V2 receptor (Rattus norvegicus, UniProt Q00788)
Sequence (Q00788 whole entry): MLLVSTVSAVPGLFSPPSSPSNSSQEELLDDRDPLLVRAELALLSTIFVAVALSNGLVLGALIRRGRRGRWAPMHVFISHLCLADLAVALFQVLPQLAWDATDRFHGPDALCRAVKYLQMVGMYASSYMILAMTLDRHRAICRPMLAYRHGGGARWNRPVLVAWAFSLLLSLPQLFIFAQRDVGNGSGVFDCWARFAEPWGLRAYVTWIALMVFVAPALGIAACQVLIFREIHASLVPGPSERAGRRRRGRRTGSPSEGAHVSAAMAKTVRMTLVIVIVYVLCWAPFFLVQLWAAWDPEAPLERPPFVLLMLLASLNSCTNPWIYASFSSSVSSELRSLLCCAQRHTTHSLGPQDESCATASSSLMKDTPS
protocolDetails: Inhibition of [3H]arginine vasopressin binding to AVP-V2 site in rat kidney medulla.
Type: tissue-based
pIC50: −log10 of the molar value. Where a SMILES comes first, the peptide text is derived from it. [ ]: non-standard residue; d: D form. dPiz(1,6-dehydro) = O=C(O)[C@H]1CCC=NN1; d2Nal = N[C@H](Cc1ccc2ccccc2c1)C(=O)O; dNMeF = CN[C@H](Cc1ccccc1)C(=O)O; Pip = O=C(O)[C@@H]1CCCCN1; dPip = O=C(O)[C@H]1CCCCN1
observedProperty: pIC50

molecule: CC[C@H](C)[C@@H]1NC(=O)[C@@H](Cc2ccccc2)NC(=O)[C@@H]2CCCN2C(=O)[C@@H](Cc2ccccc2)N(C)C(=O)[C@@H]2CCCCN2C(=O)[C@H]2CCC=NN2C1=O (cyclo(I[dPiz(1,6-dehydro)][Pip][dNMeF]P[dF]))
targetOrTestSystem: Vasopressin V2 receptor (Rattus norvegicus, UniProt Q00788)
resultNumber: 5.92

(A) CC[C@H](C)[C@@H]1NC(=O)[C@@H](Cc2ccc3ccccc3c2)NC(=O)[C@@H]2CCCN2C(=O)[C@@H](Cc2c[nH]cn2)NC(=O)[C@@H]2CCCCN2C(=O)[C@H]2CCCCN2C1=O (cyclo(I[dPip][Pip][dH]P[d2Nal]))
(B) CC[C@H](C)[C@@H]1NC(=O)[C@@H](Cc2ccccc2)NC(=O)[C@@H]2CCCN2C(=O)[C@@H](Cc2ccccc2)N(C)C(=O)[C@@H]2CCCN2C(=O)[C@H]2CCCN2C1=O (cyclo([dNMeF]P[dF]I[dP]P))
Q: Decide: A or B , by lowest recorded pIC50. Your answer should be the label of the entry you select.
A: B
(B: 4.09, A: 6.04)

----------
Species: Rattus norvegicus
protocolDetails: pA2 value was determined from regression analysis of log (dose ratio-1) vs -log [antagonist] (isolated uterus from DES-pretreated rats)
Format: functional
details: read-out: pA2 (converted)
Where a SMILES comes first, the peptide text is derived from it. [ ]: non-standard residue; d: D form. d2Nal = N[C@H](Cc1ccc2ccccc2c1)C(=O)O; Pip(4-aza) = O=C(O)[C@@H]1CNCCN1; dNMeF = CN[C@H](Cc1ccccc1)C(=O)O; Pip = O=C(O)[C@@H]1CCCCN1; dPip = O=C(O)[C@H]1CCCCN1
observedProperty: Kb (nM)
Numbers only; they are read as nM.

// below: answered compounds
compound: CC[C@H](C)[C@@H]1NC(=O)[C@@H](Cc2ccccc2)NC(=O)[C@@H]2CCCN2C(=O)[C@@H](Cc2ccccc2)N(C)C(=O)[C@H](CCCN)NC(=O)[C@H]2CCC=NN2C1=O
resultNumber: 3.39

compound: CC[C@H](C)[C@@H]1NC(=O)[C@@H](Cc2c[nH]c3ccccc23)NC(=O)[C@@H]2CCCN2C(=O)[C@@H](Cc2ccccc2)N(C)C(=O)[C@@H]2CNCCN2C(=O)[C@H]2CCCCN2C1=O (cyclo(I[dPip][Pip(4-aza)][dNMeF]P[dW]))
resultNumber: 2.57

compound: CC[C@H](C)[C@@H]1NC(=O)[C@@H](Cc2ccc3ccccc3c2)NC(=O)[C@@H]2CCCN2C(=O)[C@@H](Cc2c[nH]cn2)NC(=O)[C@@H]2CCCCN2C(=O)[C@H]2CCCCN2C1=O (cyclo(I[dPip][Pip][dH]P[d2Nal]))
resultNumber: 2.95

Now for another entry.
Q: For the compound CC[C@H](C)[C@@H]1NC(=O)[C@@H](Cc2c[nH]c3ccccc23)NC(=O)[C@@H]2CCCN2C(=O)[C@@H](Cc2c[nH]cn2)NC(=O)[C@@H]2CCCCN2C(=O)[C@H]2CCC=NN2C1=O , what Kb is on record?
A: 1.51
